# testSummary: Tested for pharmacokinetic parameter in fasted Beagle dogs (Area Under Curve value) iv administration.
# Format: ADME, organism-based, Canis lupus familiaris
# conditionInfo: dog, in vivo
What AUC was measured for each of the following?
Enter your answer as a number in ng·h/mL; do not include the unit.

(Q) So what's the measured AUC for this one? Cc1cc(CCCCCOc2c(Cl)cc(C3=NCCO3)cc2Cl)on1 [WIN-54954]
(A) 4910

(Q) So what's the measured AUC for this one? Cc1cc(CCCOc2c(C)cc(-c3noc(C(F)(F)F)n3)cc2C)on1 [PLECONARIL]
(A) 11800

###

# testSummary: t1/2 in monkey liver microsomes
# Format: ADME, Microsome
# conditionInfo: simiiformes
measurementLabel: half-life

(Q) So what's the measured half-life for this one? CC(=O)c1ccc(CCCOc2c(C)cc(-c3noc(C(F)(F)F)n3)cc2C)o1
(A) 1.05 h

(Q) So what's the measured half-life for this one? Cc1cc(CCCOc2c(C)cc(-c3noc(C(Cl)(Cl)Cl)n3)cc2C)on1
(A) 0.183 h

(Q) So what's the measured half-life for this one? Cc1nc(-c2cc(C)c(OCCCc3cc(C(F)(F)F)no3)c(C)c2)no1
(A) 0.55 h

(Q) So what's the measured half-life for this one? Cc1cc(-c2noc(C(F)(F)F)n2)cc(C)c1OCCCc1cc(CS(C)(=O)=O)no1
(A) > 2.5 h

(Q) So what's the measured half-life for this one? Cc1cc(CCCOc2c(C)cc(-c3noc(C(C)(F)F)n3)cc2C)on1
(A) 1.1 h

(Q) So what's the measured half-life for this one? Cc1cc(-c2noc(C(F)(F)F)n2)cc(C)c1OCCCc1cc(C[S+](C)[O-])no1 (stereo unspecified)
(A) > 2.5 h

(Q) So what's the measured half-life for this one? CCOc1cc(CCCOc2c(C)cc(-c3noc(C4CC4)n3)cc2C)on1
(A) > 2.5 h

(Q) So what's the measured half-life for this one? COCc1cc(CCCOc2c(C)cc(-c3noc(C(F)(F)F)n3)cc2C)on1
(A) 1.58 h

(Q) So what's the measured half-life for this one? COCc1cc(CCCOc2c(C)cc(-c3noc(C)n3)cc2C)on1
(A) 0.5 h

(Q) So what's the measured half-life for this one? CCOc1nc(-c2cc(C)c(OCCCc3cc(C)no3)c(C)c2)no1
(A) > 2.5 h

(Q) So what's the measured half-life for this one? CC(=O)c1ccc(CCCOc2c(C)cc(-c3noc(C)n3)cc2C)o1
(A) 0.617 h

(Q) So what's the measured half-life for this one? Cc1cc(CCCOc2c(C)cc(-c3noc(C(F)(F)F)n3)cc2C)on1 [PLECONARIL]
(A) > 2.5 h

(Q) So what's the measured half-life for this one? Cc1cc(-c2noc(C3CC3)n2)cc(C)c1OCCCc1cc(OCCO)no1
(A) > 2.5 h

(Q) So what's the measured half-life for this one? COCc1cc(CCCOc2c(C)cc(-c3noc(C4CC4)n3)cc2C)on1
(A) > 2.5 h

(Q) So what's the measured half-life for this one? Cc1cc(-c2noc(C(F)(F)F)n2)cc(C)c1OCCCc1cccc(F)n1
(A) > 2.5 h

(Q) So what's the measured half-life for this one? Cc1cc(CCCOc2c(C)cc(-c3noc(C(N)=O)n3)cc2C)on1
(A) 2.3 h

(Q) So what's the measured half-life for this one? Cc1cc(-c2noc(C(F)(F)F)n2)cc(C)c1OCCCc1cc(CO)no1
(A) > 2.5 h

(Q) So what's the measured half-life for this one? Cc1cc(-c2noc(C3CC3)n2)cc(C)c1OCCCc1cc(CO)no1
(A) > 2.5 h

(Q) So what's the measured half-life for this one? Cc1cc(-c2noc(C3CC3)n2)cc(C)c1OCCCc1cc(C2CC2)no1
(A) > 2.5 h

(Q) So what's the measured half-life for this one? CCOCc1cc(CCCOc2c(C)cc(-c3noc(C(F)(F)F)n3)cc2C)on1
(A) > 2.5 h

(Q) So what's the measured half-life for this one? CCc1cc(CCCOc2c(C)cc(-c3noc(C(F)(F)F)n3)cc2C)on1
(A) > 2.5 h
